tested on: biotinyl-Leu-oxazolone; experiment: self-aminoacylation, catalytic enhancement (BLO) (fold over background); higher = more active; k-Seq, kA / k0A0; sequences stand for … in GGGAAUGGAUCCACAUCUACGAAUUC…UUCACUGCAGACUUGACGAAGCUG
Variants at the floor of the assay were thinned out.
measured.endpoint: self-aminoacylation
Would you mind answering with just the numeric figure?

Exam item: Entry under review: AAGUUGGCUAAUAGCCGCAAG [Fam3.1 aminoacylation ribozyme variant] . Reported self-aminoacylation?
Marked response: 1.95

Exam item: Entry CUGCUUCAAACAAUCAGUCUG [Fam1A.1 aminoacylation ribozyme variant] : reported self-aminoacylation = ?
Marked response: 1.21

Exam item: Please give the measured self-aminoacylation for this sequence: CCACACUUCAAGCUAUCGGGC [Fam1B.1 aminoacylation ribozyme variant]
Marked response: 1.45

Exam item: Can you look up the measured self-aminoacylation of CCACACUGCAAGCGAUCGGUC [Fam1B.1 aminoacylation ribozyme variant] for me?
Marked response: 1.15

Exam item: Item under review: AUUAACCUGGUCAUCGCGUGA [Fam2.1 aminoacylation ribozyme variant] . Reported self-aminoacylation?
Marked response: 19.1

Exam item: Dear colleague, I am looking for the recorded self-aminoacylation of the following sequence: AUUACGCUGGACAUCGAGUGA [Fam2.1 aminoacylation ribozyme variant]
Marked response: 4.51

Exam item: Given AUUCACCUAGGUCAUCUGUUG [Fam2.2 aminoacylation ribozyme variant] , state its recorded self-aminoacylation.
Marked response: 0.618

Exam item: So what does the record say about self-aminoacylation for CUACUACAAACAAACGGUCUG [Fam1A.1 aminoacylation ribozyme variant] ?
Marked response: 0.648

Exam item: Give its self-aminoacylation value. Item: CCACACUUCAAGCGAUCGGGC [Fam1B.1 aminoacylation ribozyme variant]
Marked response: 1.64

Exam item: Report self-aminoacylation for UUACUUCAAACAAUCGGUCUC [Fam1A.1 aminoacylation ribozyme variant] please.
Marked response: 1.4

Exam item: Which measured self-aminoacylation value corresponds to AUAACCCUGGUCAUCGAUUGA [Fam2.1 aminoacylation ribozyme variant] ?
Marked response: 1.02

Exam item: // lookup self-aminoacylation for CCACCCUUCAAGCAAUCGGUA [Fam1B.1 aminoacylation ribozyme variant]
Marked response: 1.59

Exam item: Reported self-aminoacylation, sequence AUUCAGCUAAGUCAUCGGGUG [Fam2.2 aminoacylation ribozyme variant] : ____
Marked response: 3.99

Exam item: // query self-aminoacylation value for entry AUUCACCUAGUUCAUCAGGUG [Fam2.2 aminoacylation ribozyme variant]
Marked response: 0.986

Exam item: State the recorded self-aminoacylation for this entry: AUUCACAUAGCUCAUCGGGUG [Fam2.2 aminoacylation ribozyme variant]
Marked response: 2.36

Exam item: Give its self-aminoacylation value. Item: GUUACCCUGGUCGUCGAGUGA [Fam2.1 aminoacylation ribozyme variant]
Marked response: 1.9

Exam item: I have this sequence here, AAGUUUGCAAAUAGUCGCAUG [Fam3.1 aminoacylation ribozyme variant] , and I need its recorded self-aminoacylation.
Marked response: 0.874

Exam item: Which value of self-aminoacylation has been reported for AAGUUUGCUAAAAGUCACAAG [Fam3.1 aminoacylation ribozyme variant] in the records?
Marked response: 0.919

====

tested on: biotinyl-Trp-oxazolone; assay: self-aminoacylation, catalytic enhancement (BWO) (fold over background); higher = more active; k-Seq, kA / k0A0; sequences stand for … in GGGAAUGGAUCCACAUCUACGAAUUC…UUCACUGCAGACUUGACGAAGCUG
This sample holds only a part of the variants without activity.
Assign self-aminoacylation to each entry below.

Exam item: Recall the recorded self-aminoacylation for CUAUUUCAAACAAUCGGCCUG [Fam1A.1 aminoacylation ribozyme variant] with biotinyl-Trp-oxazolone and state it.
Marked response: 6.15

Exam item: API: value(readout= self-aminoacylation, system= biotinyl-Trp-oxazolone, query= AUUAGCCUUGUCAUCGAGUGA [Fam2.1 aminoacylation ribozyme variant] )
Marked response: 4.07

Exam item: Lab request: please report self-aminoacylation under test system biotinyl-Trp-oxazolone for CCACACUUCAAGCGACCGGUC [Fam1B.1 aminoacylation ribozyme variant]
Marked response: 1.63

Exam item: Param readout = self-aminoacylation; param system = biotinyl-Trp-oxazolone; param query = ACUACCCUGGUCAUUGAGUGA [Fam2.1 aminoacylation ribozyme variant] ; response: value
Marked response: 8.89

Exam item: What self-aminoacylation appears in the records for this sequence with biotinyl-Trp-oxazolone? AAGGUUGCUAAUCGUCGCAAG [Fam3.1 aminoacylation ribozyme variant]
Marked response: 2.14

Exam item: Can you look up self-aminoacylation on biotinyl-Trp-oxazolone for CCAGACUUCAAGCAAUCUGUC [Fam1B.1 aminoacylation ribozyme variant] ?
Marked response: 0.309

Exam item: Checklist item: self-aminoacylation tested on biotinyl-Trp-oxazolone, entry AUGUUUGCUAAUAGUGGCAAG [Fam3.1 aminoacylation ribozyme variant] , value?
Marked response: 0.491

Exam item: Fill in the recorded self-aminoacylation for this sequence, with biotinyl-Trp-oxazolone as test system: CCACACUUCAAGUAAUCGGUG [Fam1B.1 aminoacylation ribozyme variant]
Marked response: 4.68

====

system: biotinyl-Leu-oxazolone; test: self-aminoacylation, catalytic enhancement (BLO) (fold over background); higher = more active; k-Seq, kA / k0A0; sequences stand for … in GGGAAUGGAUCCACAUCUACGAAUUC…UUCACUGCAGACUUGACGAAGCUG
Variants at the floor of the assay were thinned out.
measured.endpoint: self-aminoacylation
Give the figure by itself; no unit, no explanation.

Exam item: Can you look up the measured self-aminoacylation of GUUACGCUGGUCAUCGAGUGA [Fam2.1 aminoacylation ribozyme variant] for me?
Marked response: 8.34

Exam item: Reported self-aminoacylation, sequence GUUACCCUGGUCAUCGAGUCA [Fam2.1 aminoacylation ribozyme variant] : ____
Marked response: 1.28

Exam item: Param item = CGUACCCUGGUCAUCGAGUGA [Fam2.1 aminoacylation ribozyme variant] ; retrieve measured self-aminoacylation.
Marked response: 9.81

Exam item: Which measured self-aminoacylation value corresponds to GUUACCCUGGUCAUCGGGUGA [Fam2.1 aminoacylation ribozyme variant] ?
Marked response: 92.1

Exam item: Given the sequence AUUCGCCUAGGUCAUCGGGUA [Fam2.2 aminoacylation ribozyme variant] , what is its reported self-aminoacylation?
Marked response: 68.8

Exam item: // lookup self-aminoacylation for AAGGUUGCUAAUAGUCGCAAU [Fam3.1 aminoacylation ribozyme variant]
Marked response: 1.68

Exam item: Query (sequence): AUUACCCUUGUCAUAGAGUGA [Fam2.1 aminoacylation ribozyme variant] ; field requested: self-aminoacylation
Marked response: 8.53

Exam item: Return reported self-aminoacylation; argument: AUUACCCUCGUCAUCGGGUGA [Fam2.1 aminoacylation ribozyme variant]
Marked response: 4.5

Exam item: Recorded self-aminoacylation for AUUACCCCGGUCAUCCAGUGA [Fam2.1 aminoacylation ribozyme variant] , please?
Marked response: 5.88

Exam item: I'd like to know its self-aminoacylation. The sequence in question is CUUCUUCAAAAAAUCGGUCUG [Fam1A.1 aminoacylation ribozyme variant]
Marked response: 1.02

Exam item: Query (sequence): AUUUACCUAGGUCAUAGGGUG [Fam2.2 aminoacylation ribozyme variant] ; field requested: self-aminoacylation
Marked response: 1.87

Exam item: Consider the sequence shown here: ACGUUUGCUAACAGUCGCAAG [Fam3.1 aminoacylation ribozyme variant] What is its recorded self-aminoacylation?
Marked response: 1.97

Exam item: What measured self-aminoacylation goes with AUUCAACUAGUUCAUCGGGUG [Fam2.2 aminoacylation ribozyme variant] ?
Marked response: 2.77

Exam item: I am curious: what self-aminoacylation value has been reported for CUUCACCUAGGUCAUCAGGUG [Fam2.2 aminoacylation ribozyme variant] ?
Marked response: 1.84

Exam item: Using the record for AUUCACCUAGGUCAUCCGGUG [Fam2.2 aminoacylation ribozyme variant] , report its self-aminoacylation.
Marked response: 8.38

Exam item: Entry AUUACCCUCGUUAUCGAGUGA [Fam2.1 aminoacylation ribozyme variant] : reported self-aminoacylation = ?
Marked response: 13.9

Exam item: Which self-aminoacylation reading was recorded for the sequence CUACAUCAAACAAUCGGCCUG [Fam1A.1 aminoacylation ribozyme variant] ?
Marked response: 1.41

Exam item: Please look up its self-aminoacylation: CCACACUUCAAGCGAUCGCUC [Fam1B.1 aminoacylation ribozyme variant]
Marked response: 2.28

Exam item: Using the record for CAACUUCUAACAAUCGGUCUG [Fam1A.1 aminoacylation ribozyme variant] , report its self-aminoacylation.
Marked response: 0.743

Exam item: Given the sequence AGGUUUGAUAAUAGUCGCAAG [Fam3.1 aminoacylation ribozyme variant] , what is its reported self-aminoacylation?
Marked response: 1.67

Exam item: For CUACUUCAAACAAUCGUUAUG [Fam1A.1 aminoacylation ribozyme variant] , what is its reported self-aminoacylation?
Marked response: 0.523

Exam item: Form field: reported self-aminoacylation of CUACUACAAACAAUCGGUCUU [Fam1A.1 aminoacylation ribozyme variant]
Marked response: 0.515

Exam item: Request the reported self-aminoacylation associated with AUUCACAUAUGUCAUCGGGUG [Fam2.2 aminoacylation ribozyme variant]
Marked response: 9.08

Exam item: Record request: self-aminoacylation value, item UUACUUCAAACAAUCGGUCGG [Fam1A.1 aminoacylation ribozyme variant]
Marked response: 2.1

Exam item: Item under review: CCACACUCCAAGCAAACGGUC [Fam1B.1 aminoacylation ribozyme variant] . Reported self-aminoacylation?
Marked response: 0.861

Exam item: # input sequence: CUGACCCUGGUCAUCGAGUGA [Fam2.1 aminoacylation ribozyme variant] ; wanted: its self-aminoacylation
Marked response: 7.94

Exam item: Returns the measured self-aminoacylation for the input sequence. Input: AUUACCCUGGUCAUGGAGGGA [Fam2.1 aminoacylation ribozyme variant]
Marked response: 1.86

Exam item: For the sequence CCCCACUUCAAGCACUCGGUC [Fam1B.1 aminoacylation ribozyme variant] , what self-aminoacylation is on record?
Marked response: 3.08

Exam item: Reported self-aminoacylation for CCACUUCAAACAAUGGGUCUG [Fam1A.1 aminoacylation ribozyme variant] : what is it?
Marked response: 0.97

Exam item: # input sequence: AUUCACGUAGGCCAUCGGGUG [Fam2.2 aminoacylation ribozyme variant] ; wanted: its self-aminoacylation
Marked response: 4.12

Exam item: Looking for the measured self-aminoacylation of AUUCACCUAGGCCCUCGGGUG [Fam2.2 aminoacylation ribozyme variant] , can you help?
Marked response: 3.88

Exam item: Need self-aminoacylation of AUUACCCGGGUCUUCGAGUGA [Fam2.1 aminoacylation ribozyme variant] , thanks.
Marked response: 8.21

Exam item: Fill blank: measured self-aminoacylation of the sequence AUUAUCCUGGUCAUGGAGUGA [Fam2.1 aminoacylation ribozyme variant] is ____.
Marked response: 4.6

Exam item: // self-aminoacylation lookup, key: ACUCACCGAGGUCAUCGGGUG [Fam2.2 aminoacylation ribozyme variant]
Marked response: 7.63

Exam item: Reported self-aminoacylation, sequence CUACUUCAAACAAUCGUUCCG [Fam1A.1 aminoacylation ribozyme variant] : ____
Marked response: 0.786

Entry source: the supplement of paper PMC9233669
